// reported Micronuclei per item
tested on: HMEC cells; assay: Micronuclei per 100 cells 24 h after contacting, Table 4 lower part (HMEC); assay type: cell-based, human; details: line cell blank (below Hasp), 100 μM

molecule: [Cl][Al]([Cl])[Cl]
Micronuclei [per 100 cells]: 4.33
//
molecule: [Cl][Cu][Cl]
Micronuclei [per 100 cells]: 6.7
//
molecule: O=[N+]([O-])[O-].O=[N+]([O-])[O-].[Pb+2]
Micronuclei [per 100 cells]: 12
//
molecule: O=S(=O)([O-])[O-].[Cu+2]
Micronuclei [per 100 cells]: 5.3
//
molecule: [Cl][Cd][Cl]
Micronuclei [per 100 cells]: 12.25
//
molecule: CC(=O)[O-].CC(=O)[O-].[Cd+2] [Cd-acetate]
Micronuclei [per 100 cells]: 10
